These entries and their values trace back to ChEMBL document CHEMBL1909046.

# STUDY_TARGET: UniProt:P08913
# Sequence (P08913 whole entry): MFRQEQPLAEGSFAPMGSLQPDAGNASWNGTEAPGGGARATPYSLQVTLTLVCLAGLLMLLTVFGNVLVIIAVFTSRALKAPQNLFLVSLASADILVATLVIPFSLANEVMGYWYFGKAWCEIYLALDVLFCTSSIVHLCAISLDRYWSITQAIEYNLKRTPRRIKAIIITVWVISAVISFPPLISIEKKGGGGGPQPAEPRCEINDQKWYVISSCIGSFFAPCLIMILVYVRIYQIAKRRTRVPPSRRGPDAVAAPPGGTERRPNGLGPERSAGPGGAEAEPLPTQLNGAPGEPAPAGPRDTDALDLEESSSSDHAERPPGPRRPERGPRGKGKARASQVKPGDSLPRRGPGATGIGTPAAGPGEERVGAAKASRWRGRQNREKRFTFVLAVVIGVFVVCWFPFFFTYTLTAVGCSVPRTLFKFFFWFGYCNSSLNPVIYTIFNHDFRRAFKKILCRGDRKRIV
# Format: cell membranes, Sf9, Membrane
# CONDITIONS: sf9; further: in other assays of this panel Not Active means under 50% inhibition at 10 µM
REPORTED_PROPERTY: IC50

[
  {
    "MOLECULE": "CC1=C(CC(=O)O)c2cc(F)ccc2/C1=C\\c1ccc(S(C)(=O)=O)cc1 [EXISULIND]",
    "STUDY_TARGET": "UniProt:P08913",
    "ASSAY_VALUE": "Not Active"
  },
  {
    "MOLECULE": "CN(CCOc1ccc(CC2SC(=O)NC2=O)cc1)c1ccccn1 (stereo not drawn) [ROSIGLITAZONE]",
    "STUDY_TARGET": "UniProt:P08913",
    "ASSAY_VALUE": "Not Active"
  },
  {
    "MOLECULE": "CCC(=O)O[C@H]1[C@H](O[C@@H]2[C@@H](C)[C@H](O[C@H]3C[C@@](C)(OC)[C@@H](O)[C@H](C)O3)[C@@H](C)C(=O)O[C@H](CC)[C@@](C)(O)[C@H](O)[C@@H](C)C(=O)[C@H](C)C[C@@]2(C)O)O[C@H](C)C[C@@H]1N(C)C [ERYTHROMYCIN PROPIONATE]",
    "STUDY_TARGET": "UniProt:P08913",
    "ASSAY_VALUE": "Not Active"
  }
]
